Taken from PubChem BioAssay (NCI).

# protocol: NCI Yeast Anticancer Drug Screen. Data for the mec2-1 strain (AID 157)
# condition.context: S. cerevisiae mec2-1 strain, at 50.0 µM (retest, dose inferred, filed as 5.0)
Compounds without any hit were thinned out: in the full panel of roughly 79,000, 15% have a hit. Active and inactive are the calls of the source. Cut-off read from the data, not from the text of the source: active = growth inhibition above about 70%; inactive = the rest.
Possible outcomes: y for active, n for inactive

1) Cc1oc2c(C)c3oc(=O)cc(C)c3cc2c1CCl ... y
2) O=C1c2ccccc2Cc2cccc(Cl)c21 ... n
3) NC(CS/C(Cl)=C/Cl)C(=O)O (stereo not given) ... y
4) CC(=O)C1Cc2ccccc2C1=O (stereo not given) ... n
5) C=CCO/N=C/c1cc(NC(=S)c2ccoc2C)ccc1Cl ... y

====

# protocol: NCI Yeast Anticancer Drug Screen. Data for the cln2 rad14 strain (AID 165);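 note: 0% = growth equal to vehicle treated cultures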
# condition.context: S. cerevisiae cln2 rad14 strain, at 50.0 µM, hits give high values
This is part of a sample that, as a whole, favours compounds with a hit. Of some 79,000 tested, about 15% had one in any assay.
This section presents molecules with their documented growth inhibition values.
quantity: growth inhibition (%)

1) CCCCCCCCC(=O)OCCCC(CCC(CCC1CCCO1)OC(=O)CCCCCCCC)OC(=O)CCCCCCCC (stereo unspecified) ... 14.3
2) O=C1/C(=C\c2ccc([N+](=O)[O-])cc2)CS(=O)(=O)C/C1=C/c1ccc([N+](=O)[O-])cc1 ... 86.8
3) c1ccc(-c2cc3cc4ccccc4cn3c2)cc1 ... 82.8
4) O=C(OC12CC3CC(CC(C3)C1)C2)c1ccc(NCc2cc(O)ccc2O)cc1 ... 87.8
5) COc1ccc2c(c1)C(N)=C(c1ccccc1)C2=O ... 0.55
6) Oc1ccc(Br)cc1Sc1cc(Br)ccc1O ... 99.4
7) COc1cc(N(CCC#N)CCC#N)ccc1/C(N=Nc1ccc(C(=O)O)cc1)=N/NC(=O)c1cc(Br)ccc1O ... 34
8) C1=C(c2ccccc2)c2ccccc2C1 ... 50
9) COc1ccc2c(c1OC)OCC(CN(C)C)C2=O (stereo unspecified) ... 96.3
10) COC1CC(C)C(OC)c2cc(O)cc(c2O)NC(=O)/C(C)=C/C=C\C(C)C(OC(N)=O)/C(C)=C\C(C)C1OC (stereo unspecified) ... 89.8
11) COc1c(C)c2c(c(O)c1C/C=C(\C)CCC(=O)O)C(=O)OC2 ... 90.2
12) O=C(c1ccccc1)C(Br)[N+](=O)[O-] (stereo unspecified) ... 99.7
13) CC1(C)N=c2cc3c(cc2N1c1ccc(Cl)cc1)=Nc1ccccc1N3c1ccc(Cl)cc1 ... 95.2
14) CCN(CC)c1ccc(/C=C\C(=O)c2ccc(NC(C)=O)cc2)cc1 ... 28.6
15) CC1=CC(=O)C=CC1(C)C(Cl)(Cl)Cl (stereo unspecified) ... 44.3
16) O=C1C=C(Cl)C(=O)c2ccccc21 ... 99.1
17) CCSc1nc2ccccc2o1 ... 30.6
18) CCCCCCCCCCCCCCCCCC1=NCCCN1CCO ... -41.6
19) On1c(-c2ccccc2)nc2ccccc2c1=S ... 25.4
20) C/C=C/c1cc2c(c(=O)o1)C(=O)[C@@H](O)[C@H](C)O2 ... -1.15
21) CCOc1cc(F)c([N+](=O)[O-])cc1[N+](=O)[O-] ... 98.4
22) O=C(Cc1ccccc1)C(F)(F)F ... -15.6
23) O=C1C=CC(=O)N1c1cccc2c1CCCC2 ... 93.5
24) COC(=O)[C@]1(C)CCC[C@@]2(C)[C@@H]3C[C@@H]4[C@H]5C[C@@]3(CC[C@@H]21)C[C@@]45C ... 92.3
25) O=Nc1ccc2ccccc2c1O ... 58.5
26) CCCc1cc(=O)oc2c3c(c4c(c12)OC(C)(C)CC4)OC(C)[C@H](C)[C@@H]3O (stereo partly specified) ... 85.2
27) COc1cc(N(CCC#N)CCC#N)ccc1/C(N=Nc1ccc([N+](=O)[O-])cc1)=N/NC(=O)c1cc(Br)ccc1O ... 55.1
28) COc1ccc(OC)c(Cc2cnc3nc(N)nc(N)c3c2C)c1 ... 6.45
29) CCN(CC)CC(O)c1cc(-c2ccc(Cl)cc2)nc2cc(Cl)ccc12 (stereo unspecified) ... 47.9
30) CN(Cc1ccccc1)c1ccc(SC#N)cc1 ... 24.6
31) COc1ccc2nc3c4c(nccc4c2c1)-c1ncccc1C3=O ... 90.6
32) O=C(O)c1cccc2cccc(-c3c4ccc(=O)c(O)c-4oc4c(O)c(O)ccc34)c12 ... 89
33) Cc1cc2nc(CC(=O)c3ccncc3)c(=O)[nH]c2cc1C ... 30.1
34) O=C1c2ccccc2Cc2cccc(Cl)c21 ... 17.4
35) NC(=Nc1nc(-c2ccccn2)cc2ccccc12)c1ccccn1 ... 68.6
36) COC(=O)c1ccc(=O)c2nc3/c(=C/O)c(O)cc(=O)c3[nH]c12 ... 89.3

====

# protocol: NCI Yeast Anticancer Drug Screen. Data for the sgs1 mgt1 strain (AID 161);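 note: 0% = growth of cultures given vehicle only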
# condition.context: S. cerevisiae sgs1 mgt1 strain, at 5.0 µM (retest, dose inferred, filed as 0.5)
About 79,000 compounds went through this panel and 15% of them were active in at least one assay; those are over-represented in the sample as a whole. Calls of active or inactive are those of the source. Rule as the data show it: active = growth inhibition above about 70%; inactive = the rest.
Possible outcomes: true = active, false = inactive

1) O=C1C=CC(=O)N1c1ccccc1 ... true
2) O=C(c1ccccc1)c1ccc(O)c2ncccc12 ... false
3) CCOC(=O)c1c(C)[nH]c2ccc(O)cc12 ... false
4) O=C(/C=C/c1ccccc1)c1ccc(N=Cc2ccccc2)cc1 ... false

====

# protocol: NCI Yeast Anticancer Drug Screen. Data for the mlh1 rad18 strain (AID 175)
# condition.context: S. cerevisiae mlh1 rad18 strain growth inhibition; at 5.0 µM (retest, dose inferred, filed as 0.5)
Compounds without any hit were thinned out: in the full panel of roughly 79,000, 15% have a hit. Active and inactive are the calls of the source. Cut-off read from the data, not from the text of the source: active = growth inhibition above about 70%; inactive = the rest.
Possible outcomes: active, inactive

1. COc1ccc2c(c1OC)OCC(CN(C)C)C2=O (configuration not stated) ... inactive
2. CC(=O)Oc1ccc(OC(C)=O)c2c1CC=CC2 ... inactive
3. Fc1cccc(F)c1C1SCc2nc3cc4ccccc4cc3n21 (configuration not stated) ... inactive
4. COc1cc(-c2ccc(-[n+]3nc(-c4ccc([N+](=O)[O-])cc4)nn3-c3ccc([N+](=O)[O-])cc3)c(OC)c2)ccc1-[n+]1nc(-c2ccc([N+](=O)[O-])cc2)nn1-c1ccc([N+](=O)[O-])cc1 ... active
5. On1c(-c2ccccc2)nc2ccccc2c1=S ... inactive
6. Nc1cccc2cccc([N+](=O)[O-])c12 ... inactive
7. CC(C)(C)N/N=C(/Cc1nc2c3c(ccc2[nH]c1=O)C(=O)c1ccccc1C3=O)C(=O)NC1=C(Cl)C(=O)c2ccccc2C1=O ... inactive
8. Oc1ccc2ccccc2c1N=Nc1ccccn1 ... inactive
9. CCCCCCCCCCCCSC(=N)N ... inactive
10. Cn1c(COC(=O)NC2CCCCC2)c(COC(=O)NC2CCCCC2)c2ccc3cc(Cl)c(Cl)cc3c21 ... inactive
11. CCCOC1N(c2ccc(C)cc2)NC(=O)C1(C)C (configuration not stated) ... inactive
12. C=C(CO)C(=O)OC1CC(=C)C2CC(O)C(C)C2C2OC(=O)C(=C)C12 (configuration not stated) ... inactive

====

# protocol: NCI Yeast Anticancer Drug Screen. Data for the mlh1 rad18 strain (AID 175)
# condition.context: S. cerevisiae mlh1 rad18 strain growth inhibition; at 5.0 µM (retest, dose inferred, filed as 0.5)
This is part of a sample that, as a whole, favours compounds with a hit. Of some 79,000 tested, about 15% had one in any assay. The source made the active and inactive calls. Cut-off read from the data, not from the text of the source: active = growth inhibition above about 70%; inactive = the rest.
Possible outcomes: 1 (yes) for active, 0 (no) for inactive

1. NC(=S)N/N=C/c1ncccc1O ... 0 (no)
2. COC(=O)[C@]1(C)CCC[C@]2(C)c3ccc(C(C)C)cc3C(=O)[C@@H](Br)[C@@H]12 ... 0 (no)
3. CN(C)CNC(=S)S ... 1 (yes)
4. O=C(c1ccc(O)c(Br)c1)c1ccc(O)c(Br)c1 ... 1 (yes)
5. CCCCCCCCCCCC1N=C(N)N=C(N)N1c1cccc(Br)c1 (stereo not given) ... 1 (yes)
6. OC(c1cc(C23CC4CC(CC(C4)C2)C3)nc2c(Cl)cc(Cl)cc12)C1CCCCN1 (stereo not given) ... 1 (yes)
7. CC1(c2ccc(O)cc2)CCC(C(C)(C)c2ccc(O)cc2)CC1 (stereo not given) ... 0 (no)
8. c1ccc2sc(SSN3CC4CCC(CC4)C3)nc2c1 ... 0 (no)
9. CCC(CC)(c1ccccc1)C(O)c1ccccc1 (stereo not given) ... 0 (no)
10. CC(C)=CCCC(C)C1=C(O)C(=O)C(C)=CC1=O (stereo not given) ... 0 (no)
11. O=[N+]([O-])c1cc(-c2ccccc2)c(O)c([N+](=O)[O-])c1 ... 0 (no)
12. CC12CCC(O)CC1=CCC1C2CCC2(C)C3=NN=CC3CC12 (stereo not given) ... 0 (no)
13. CSc1nc(C)c(C(=O)CCN2CCN(c3ccccn3)CC2)s1 ... 0 (no)
14. O=C(O)CCCOc1cc(-c2ccccc2F)nc2cc3c(cc12)OCO3 ... 0 (no)
15. Nc1ccc(-c2ccc(N)c(S(=O)(=O)O)c2)cc1S(=O)(=O)O ... 0 (no)
16. Cc1cc(O)c(O)c(C(C)(C)CC(C)(C)C)c1 ... 0 (no)
17. NNc1ccc(Cl)cc1Cl ... 1 (yes)
18. COc1ccc(N=NC(C#N)C#N)cc1 ... 0 (no)
19. CCCCCCCCCCCC[n+]1ccc2ccccc2c1 ... 1 (yes)
20. CCOc1ccc(NC(=O)/C(=N\N)C(C(=O)OC)c2nc3ccc(Cl)cc3[nH]c2=O)cc1 (stereo not given) ... 0 (no)
21. CC(C)(C)c1ccc(O)c(Br)c1 ... 0 (no)
22. CN(Cc1ccccc1)c1ccc(SC#N)cc1 ... 0 (no)
23. CC1(C)CCCC2=C1C(=O)N(SC(Cl)(Cl)Cl)C2=O ... 1 (yes)
24. CC(/C=N/NC(N)=S)Cc1ccc(C(C)C)cc1 (stereo not given) ... 0 (no)
25. CC1=CC[C@@H]2[C@@H](CC[C@@]2(C)O)C(C)(C)[C@H]1CC[C@@H]1[C@@]2(C)CC[C@@H](O)C(C)(C)O[C@@H]2CC[C@]1(C)O ... 0 (no)
26. CCCCN(CCCC)CCCCCCCCCCO ... 0 (no)
27. C=CCO/N=C/c1cc(NC(=S)c2ccoc2C)ccc1Cl ... 0 (no)
28. Cc1c(O)ccc(SC#N)c1C ... 0 (no)
29. COc1ccc(Nc2nc3ccc(C(F)(F)F)cc3nc2C(=O)O)cc1 ... 0 (no)
30. CCN(CC)CC(O)c1cc(-c2ccc(Cl)cc2)nc2cc(Cl)ccc12 (stereo not given) ... 0 (no)
31. O=[N+]([O-])c1ccc(C2N(Cc3ccc(Cl)cc3)CCN2Cc2ccc(Cl)cc2)cc1 ... 1 (yes)
32. Fc1ccc(NCCS)cc1 ... 0 (no)
33. CCC(C)(O)Cc1ccc(Cl)cc1 (stereo not given) ... 0 (no)
34. CC1(C)OC2C(COC(c3ccccc3)(c3ccccc3)c3ccccc3)OC(c3c[nH]c4c(N)ncnc34)C2O1 (stereo not given) ... 0 (no)
35. Cc1ccc(N2C(=O)C=CC2=O)cc1 ... 1 (yes)
36. CC1=C(/C=C/C(C)=C/C(=O)O)C(C)(C)CCC1 ... 0 (no)
37. CCCCCCC1N=C(N)N=C(N)N1c1cccc(Cl)c1 (stereo not given) ... 0 (no)
38. CN1CCc2cc3c(c4c2C1C(O)c1ccccc1-4)OCO3 (stereo not given) ... 0 (no)
39. CC1C(c2ccccc2)OCCN1C(=S)Nc1ccc(S(=O)(=O)N2CCCCC2)cc1 (stereo not given) ... 0 (no)
40. COc1cc(N(CCC#N)CCC#N)ccc1/C(N=Nc1ccc(C(=O)O)cc1)=N/NC(=O)c1cc(Br)ccc1O ... 0 (no)
41. COc1c(C)c2c(c(O)c1C/C=C(\C)CCC(=O)O)C(=O)OC2 ... 0 (no)
42. CCCCCCN(CCCCCC)CCCNc1nccc2ccccc12 ... 0 (no)
43. CN1CCC(c2ccccc2)(c2ccccc2)C(=O)C1 ... 0 (no)
44. Nc1cc(-c2ccccc2)ccc1O ... 0 (no)
45. O=C1C(=O)c2cccnc2-c2ncccc21 ... 1 (yes)
